B1: CPEB3 Ribozyme (parent)
chain: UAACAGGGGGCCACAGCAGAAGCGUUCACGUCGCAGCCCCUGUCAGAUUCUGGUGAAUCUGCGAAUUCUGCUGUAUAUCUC

- Variants of: B1
- Protocol Details: self-cleavage, relative activity (ratio to wild type); higher = more cleavage; in vitro, sequencing
# self-cleavage >= 0.3 gives class 1, anything below gives class 0

Some solved entries appear below for comparison.
UAACAGCGGGCCACAGCAGAAGCGUUCACGUCGCAGCCCCUGUCAGAUUCUGGUGAAUCUGCGAAUUCUGCGGUAUAUCUC [G7C U72G] :: class 0
UAACAGGGGGCCACAGCAGAAGCGUACACGUCGCAGCCCCUGUCAGAUUCUGGUGAAUCUGCGAAUUCUGCUGUAAAUCUC [U26A U76A] :: class 1
UAACAGGGGGCCACAGCAGAAGCGUUCACGUCGCAGCCCCUGUCAGAUUCUGAUGAACCUGCGAAUUCUGCUGUAUAUCUC [G53A U58C] :: class 1
UAACAGGGGGCCACAGCAGAAGCGUUCACGUCUCAGCCCCUGUCAGAUUCUGGUGAAUCUGCGGAUUCUGCUGUAUAUCUC [G33U A64G] :: class 0
UAACAGGGGGCCACAGCAGAAGCGUUCACGUCGCAGCCCCUGUCGGAAUCUGGUGAAUCUGCGAAUUCUGCUGUAUAUCUC [A45G U48A] :: class 1
UAACAGGGGGCCACAGCGGAAGCGUUCACGUCGCAGCCCCUGUAAGAUUCUGGUGAAUCUGCGAAUUCUGCUGUAUAUCUC [A18G C44A] :: class 0
UAACAGGGGGCCUCAGCAGAAGCGUUCACGUCGCAGCCCCUGUCCGAUUCUGGUGAAUCUGCGAAUUCUGCUGUAUAUCUC [A13U A45C] :: class 1
UAACAGGGGGCCACAGCAGAAGCGUUCACGUCGCAGCCCCUGUCAGAUUCUGAUGAAUCUGCGAAUACUGCUGUAUAUCUC [G53A U67A] :: class 1
UAACAGGGGGCCACAGCAGAAGCUUUCACGCCGCAGCCCCUGUCAGAUUCUGGUGAAUCUGCGAAUUCUGCUGUAUAUCUC [G24U U31C] :: class 1
UAACAGGGGGCCACAGCAGAAGCGUUCUCGUCGCAGCCCCUGUCAGAUUCUGGUGAAUCUGCGAAUUCUGCUGUAUAUCCC [A28U U80C] :: class 1

Q) Textbook exercise: given the entry UAACAGGGGGCCACAGCAGAAGCGUUCACGUCGCAGCCCCCGUCAGAUUCUGGUGAAUCUGCGAAUUCUGCUGUUUAUCUC [U41C A75U] , state whether its self-cleavage is greater than or equal to 0.3.
A) class 1

Q) Entry to check: UAACAGGGGGCCACAGCAGAAGAGUUCACGUCGCAGCCCCUGUCAGAUUCUGGUGAAUCUGCGAAUUCUGCUGUAUAACUC [C23A U78A]
A) class 0

Q) Entry to check: UAACAGGGGGCCUCAGCAGAAGCGUUCACGUCGCAGCCUCUGUCAGAUUCUGGUGAAUCUGCGAAUUCUGCUGUAUAUCUC [A13U C39U]
A) class 1

Q) Entry to check: UAACAGGGGGCCACAGCAGAAGCGUUCACGGCGCAGCCCCUGUCAGAUUCUGGUGAAUCUGCGAAUUCUGCUGUAUAUCUC [U31G]
A) class 1

Q) Entry to check: UAACAGGGGGCCACAGCAGAAGCGUUCACGUCGCAGCCCCUGCCAGAUUCUGGUGAAUCUGCGAAUUCUGCUUUAUAUCUC [U43C G73U]
A) class 1

Q) Entry to check: UAACAGGGGGCCACAGCAGAAGCGUUCACGUCGCAGCCCCUGUCAGAUUCUGGUGAAUCUGCGAAUUCUGCUGUACAUCGC [U76C U80G]
A) class 1

Q) Entry to check: UAACAGGGGGCCACAGCGGAAGCGUUCACGUCGCAGCCCCUGUCAGAUUCUGGUGAAUCUGCGAACUCUGCUGUAUAUCUC [A18G U66C]
A) class 0

Q) Entry to check: UAACAGGGUGCCACAGCAGAAGCGUUCACGUCGCAGCCCCUGUCAGAUUCUGGUGAAUCUGCGAAUUCUGCUGUAUAUCCC [G9U U80C]
A) class 0

Q) Entry to check: UAACAGGGGGCCACAGCAGAAGCGUUCACGUCGCAGCCCCUGUCAGACUCUGGUGAAUCUGCGAAUUCUGCUGUAUAUAUC [U48C C79A]
A) class 1

Q) Entry to check: UAACAGGGGGCCACAGCAGAAGCGUUCACGUCGCAGCCCCUGUCAGACUCUGGUGGAUCUGCGAAUUCUGCUGUAUAUCUC [U48C A56G]
A) class 1

Q) Entry to check: UAACAUGGGGCCACAGCAGAAGCGUUCACGUCGCAGCCCCUGUCAGGUUCUGGUGAAUCUGCGAAUUCUGCUGUAUAUCUC [G6U A47G]
A) class 1

Q) Entry to check: UAACAGGGGGCCACAGCAGAAGCGUUCACGUCGCAGCCCCUGUCAGACUCUGGUGAAUCUGCGAAUUCUGCUGUAUAUCCC [U48C U80C]
A) class 1

Q) Entry to check: UAACAGGGGGCCACAGGAGAAGCGUUCACGUCGGAGCCCCUGUCAGAUUCUGGUGAAUCUGCGAAUUCUGCUGUAUAUCUC [C17G C34G]
A) class 1

Q) Entry to check: UAACAGGGGGCCACAGCAGAAGCGUUCACGUCGCAGCCCCUGUCAGGUUCUGGUGAAUCUGCGAAGUCUGCUGUAUAUCUC [A47G U66G]
A) class 0

Q) Entry to check: UAACGGGGGGCCACAGCAGAAGCGUUCACGUCGCAGCCCCUGUCAGAUUCUGGUGAAUCUGCGAAUUCUGCUGUAUAACUC [A5G U78A]
A) class 1

Q) Entry to check: UAACAGGGGGCCAUAGCAGAAGCGUUCACGUCGCAGCCCCCGUCAGAUUCUGGUGAAUCUGCGAAUUCUGCUGUAUAUCUC [C14U U41C]
A) class 1

Q) Entry to check: UAACAGGGGGCCACAGCAGAAGCGUUUACGUCGCAGCCCCUGUCAGAUUCUGGUGAAUCUGCGAACUCUGCUGUAUAUCUC [C27U U66C]
A) class 0

Q) Entry to check: UAACAGGGGGCCACAGCAGAAGCGUUCACGUCGCAGCCCCUGUCAGAUUCUGGUGAAUCUGCGAAUUCGGCUGUAUACCUC [U69G U78C]
A) class 1

Q) Entry to check: UGACAGGGGGCCACAGCAGAAGCGUUCACGUCGCAGCCCCUGUCAGAUUCUGGUGAAUCUGCGAAUUCUGCUGAAUAUCUC [A2G U74A]
A) class 1

Q) Entry to check: UAACAGGCGGCCACAGCUGAAGCGUUCACGUCGCAGCCCCUGUCAGAUUCUGGUGAAUCUGCGAAUUCUGCUGUAUAUCUC [G8C A18U]
A) class 0

Q) Entry to check: UAACAGGGGGCCACAGCAGAAGCGUUCACGUCACAGCCCCUGUCAGAUUCUGGUGAAUCUGCGAAUUUUGCUGUAUAUCUC [G33A C68U]
A) class 0

Numbers sourced from the RNAGym collection of RNA variant scans (doi:10.1093/nar/gkz1192).
